# Tested on: A. fum.
# METHOD_NOTES: In vitro antifungal MIC, NCCLS M38P broth method in RPMI 1640/MOPS pH 7
# Assay type: cell-based, Aspergillus fumigatus
# TEST_PARAMETERS: Aspergillus fumigatus; A. fumigatus strain 1008; RPMI 1640, MOPS pH 7; read-out: MIC (A. fum.) 1008
Overview of reported MIC across a group of molecules:
OBSERVABLE: MIC (µg/mL)

MOLECULE | TARGET_OR_SYSTEM | ENDPOINT_UNIT | READING_QUALIFIER | QUANTITATIVE_RESULT
C[C@@H](N(N)C(=S)Nc1ccccc1)[C@](O)(Cn1cncn1)c1ccc(F)cc1F | A. fum. | µg/mL | > | 16
C[C@@H](N(NC(=O)OC(C)(C)C)C(=S)Nc1ccc(-n2ncnn2)cc1)[C@](O)(Cn1cncn1)c1ccc(F)cc1F | A. fum. | µg/mL | > | 16
C[C@@H](n1ncn(-c2ccc(OCC(F)(F)C(F)F)cc2)c1=S)[C@](O)(Cn1cncn1)c1ccc(F)cc1F | A. fum. | µg/mL | = | 0.25
C[C@@H](N(N)C(=S)Nc1ccc(OC(F)(F)F)cc1)[C@](O)(Cn1cncn1)c1ccc(F)cc1F | A. fum. | µg/mL | = | 2
C[C@@H](N(NC(=O)OC(C)(C)C)C(=S)Nc1ccc(OC(F)(F)F)cc1)[C@](O)(Cn1cncn1)c1ccc(F)cc1F | A. fum. | µg/mL | = | 8
C[C@@H](N(N)C(=S)Nc1ccc(C(F)(F)F)cc1)[C@](O)(Cn1cncn1)c1ccc(F)cc1F | A. fum. | µg/mL | = | 4
C[C@@H](n1ncn(-c2ccc(OC(F)(F)F)cc2)c1=S)[C@](O)(Cn1cncn1)c1ccc(F)cc1F | A. fum. | µg/mL | = | 2
C[C@@H](N(N)C(=S)Nc1ccc(OCC(F)(F)C(F)F)cc1)[C@](O)(Cn1cncn1)c1ccc(F)cc1F | A. fum. | µg/mL | = | 1
COc1ccc(NC(=S)N(N)[C@H](C)[C@](O)(Cn2cncn2)c2ccc(F)cc2F)c(OC)c1 | A. fum. | µg/mL | > | 16
COc1ccc(NC(=O)N(NC(=O)OC(C)(C)C)[C@H](C)[C@](O)(Cn2cncn2)c2ccc(F)cc2F)c(OC)c1 | A. fum. | µg/mL | > | 16
C[C@@H](N(NC(=O)OC(C)(C)C)C(=S)Nc1ccc(F)cc1F)[C@](O)(Cn1cncn1)c1ccc(F)cc1F | A. fum. | µg/mL | > | 16
C[C@@H](N(NC(=O)OC(C)(C)C)C(=S)Nc1ccc(F)cc1)[C@](O)(Cn1cncn1)c1ccc(F)cc1F | A. fum. | µg/mL | > | 16
C[C@@H](n1ncn(-c2ccc(C(F)(F)F)cc2)c1=S)[C@](O)(Cn1cncn1)c1ccc(F)cc1F | A. fum. | µg/mL | = | 1
C[C@@H](N(NC(=O)OC(C)(C)C)C(=S)Nc1ccc(OC2CCCCO2)cc1)[C@](O)(Cn1cncn1)c1ccc(F)cc1F (some centres unmarked) | A. fum. | µg/mL | > | 16

---

# Tested on: A. fum.
# METHOD_NOTES: In vitro antifungal MIC, NCCLS M38P broth method in RPMI 1640/MOPS pH 7
# Assay type: cell-based, Aspergillus fumigatus
# TEST_PARAMETERS: Aspergillus fumigatus; A. fumigatus strain 1008; RPMI 1640, MOPS pH 7; read-out: MIC (A. fum.) 1008
OBSERVABLE: MIC

STRUCTURE_SMILES_STRING | OBSERVABLE | RESULT
COc1ccc(NC(=S)N(NC(=O)OC(C)(C)C)[C@H](C)[C@](O)(Cn2cncn2)c2ccc(F)cc2F)c(OC)c1 | MIC | > 16 µg/mL
C[C@@H](N(NC(=O)OC(C)(C)C)C(=S)Nc1ccc(OCC(F)(F)C(F)F)cc1)[C@](O)(Cn1cncn1)c1ccc(F)cc1F | MIC | 4 µg/mL
C[C@@H](N(NC(=O)OC(C)(C)C)C(=S)Nc1ccc(-n2cnnn2)cc1)[C@](O)(Cn1cncn1)c1ccc(F)cc1F | MIC | > 16 µg/mL

---

Overview of reported MIC across a group of compounds:
# Test system: A. fum.
# METHOD_NOTES: In vitro antifungal MIC, NCCLS M38P broth method in RPMI 1640/MOPS pH 7
# Assay type: cell-based, Aspergillus fumigatus
# TEST_PARAMETERS: Aspergillus fumigatus, pH 7, read-out: MIC (A. fum.) Si-l

STRUCTURE_SMILES_STRING | MIC
C[C@@H](n1ncn(-c2ccc([N+](=O)[O-])cc2)c1=S)[C@](O)(Cn1cncn1)c1ccc(F)cc1F | 2 µg/mL
C[C@@H](n1ncn(-c2ccc(O)cc2)c1=S)[C@](O)(Cn1cncn1)c1ccc(F)cc1F | > 16 µg/mL
C[C@@H](N(N)C(=S)Nc1ccc(O)cc1)[C@](O)(Cn1cncn1)c1ccc(F)cc1F | > 16 µg/mL
C[C@@H](N(N)C(=O)Nc1ccc(Cl)cc1)[C@](O)(Cn1cncn1)c1ccc(F)cc1F | > 16 µg/mL
C[C@@H](N(NC(=O)OC(C)(C)C)C(=S)Nc1ccc([N+](=O)[O-])cc1)[C@](O)(Cn1cncn1)c1ccc(F)cc1F | > 16 µg/mL
C[C@@H](N(NC(=O)OC(C)(C)C)C(=O)Nc1ccc(Cl)cc1)[C@](O)(Cn1cncn1)c1ccc(F)cc1F | > 16 µg/mL
C[C@@H](N(N)C(=S)Nc1cnc2ccccc2c1)[C@](O)(Cn1cncn1)c1ccc(F)cc1F | 4 µg/mL
